Give measured inhibition at 10 µM for each item. Keep answers brief.
- Tested on: SR
- test.protocol: NCI-60 SRB growth inhibition, one-dose and five-dose
- Type: cell-based
- particulars: Homo sapiens, read-out: percent growth inhibition
Number only, in %; omit the unit.

Q. Tell me measured inhibition at 10 µM for Cc1ccc(CNc2cccc(C(=O)/C=C/c3cccnc3)c2)cc1 please.
A. 85.6

Q. Report measured inhibition at 10 µM; entry is O=C(/C=C/c1c[nH]cn1)c1cccc(NCc2ccc(CO)cc2)c1
A. 92.9

Q. State, in one line, measured inhibition at 10 µM of CC(=O)Nc1ccc(/C=C/C(=O)c2cccc(NCc3ccc(C)cc3)c2)cc1
A. 96.5

Q. Given the compound O=C(/C=C/c1c[nH]cn1)c1cccc(NCc2ccc3oc(=O)ccc3c2)c1 , write its reported inhibition at 10 µM.
A. 98.1

Q. Specify measured inhibition at 10 µM for COc1ccc(CNc2cccc(C(=O)/C=C/c3ccc(NC(C)=O)cc3)c2)cc1OC .
A. 98.3

Q. For the compound COc1ccc(CNc2cccc(C(=O)/C=C/c3cccnc3)c2)cc1OC , report inhibition at 10 µM.
A. 92

----------
- Tested on: A498
- test.protocol: NCI-60 SRB growth inhibition, one-dose and five-dose
- Assay type: cell-based
- particulars: Homo sapiens, A498, read-out: percent growth inhibition
recorded.metric: inhibition at 10 µM (%)
Write the answer as a number in %, unit excluded.

Q. Item CC(=O)Nc1ccc(CNc2cccc(C(=O)/C=C/c3c[nH]cn3)c2)cc1 : provide inhibition at 10 µM
A. 11.1

Q. Consider the molecule CC(=O)Nc1ccc(/C=C/C(=O)c2cccc(NCc3ccc4oc(=O)ccc4c3)c2)cc1 . State its measured inhibition at 10 µM.
A. 20.4

Q. Provide inhibition at 10 µM value for the following molecule: COc1ccc(CNc2cccc(C(=O)/C=C/c3cccnc3)c2)cc1OC
A. 20

Q. Report inhibition at 10 µM, nothing else, for this molecule: O=C(/C=C/c1c[nH]cn1)c1cccc(NCc2ccc(CO)cc2)c1
A. 2.28

Q. Quote inhibition at 10 µM reported for O=C(/C=C/c1cccnc1)c1cccc(NCc2ccc(CO)cc2)c1 please.
A. 15.3

Q. Recall and state the measured inhibition at 10 µM for CC(=O)Nc1ccc(/C=C/C(=O)c2cccc(NCc3ccc(CO)cc3)c2)cc1 .
A. 3.83

----------
- Test system: NSCLC cell lines
- test.protocol: NCI-60 SRB growth inhibition, subpanel
- Type: cell-based, human
- particulars: Homo sapiens, read-out: MG-MID GI50
Exercise: for every item that follows, state its recorded GI50.
Numeric answer only, unit µM assumed.

Q. Look up GI50 of O=C(/C=C/c1cccnc1)c1cccc(NCc2csc3ccccc23)c1 [Compound 5d] and report it.
A. 6.83

Q. Please supply the value of reported GI50 for the item COc1ccc(CNc2cccc(C(=O)/C=C/c3ccc(NC(C)=O)cc3)c2)cc1OC [Compound 5h]
A. 8.91

Q. Identify the reported GI50 for the following entry. CC(=O)Nc1ccc(CNc2cccc(C(=O)/C=C/c3cccnc3)c2)cc1 [Compound 5b]
A. 7.24

Q. Provide one value: measured GI50 of O=C(/C=C/c1cccnc1)c1cccc(NCc2ccc(CO)cc2)c1 [Compound 5e]
A. 13.6

----------
Please go through the items and note down their GI50.
- System: Colon cancer cell lines
- test.protocol: NCI-60 SRB growth inhibition, subpanel
- Format: cell-based, human
- particulars: Homo sapiens, read-out: GI50 MG-MID
Give your result in µM as a bare value.

Q. Please indicate recorded GI50 of COc1ccc(CNc2cccc(C(=O)/C=C/c3cccnc3)c2)cc1OC measured with Colon cancer cell lines.
A. 4.45

Q. Lab note: record GI50 of CC(=O)Nc1ccc(/C=C/C(=O)c2cccc(NCc3ccc(NC(C)=O)cc3)c2)cc1 tested on Colon cancer cell lines.
A. 8.13

Q. Provide Colon cancer cell lines GI50 reading for CC(=O)Nc1ccc(/C=C/C(=O)c2cccc(NCc3ccc(CO)cc3)c2)cc1 .
A. 7.35

Q. Give GI50 for COc1ccc(CNc2cccc(C(=O)/C=C/c3ccc(NC(C)=O)cc3)c2)cc1OC tested on Colon cancer cell lines.
A. 3.24
